biological target: EGFR T790M/L858R Ba/F3 cell line (Homo sapiens, UniProt P00533, T790M/L858R, cells depend on it); test: Ba/F3 cell proliferation model (MTS assay); assay type: cell-based, murine; settings: read-out: Ba/F3 cellular activity (EC50) T790M/L858R + Cetuximab; presence of 1 μg/mL cetuximab
Sequence (P00533 whole entry T790M/L858R): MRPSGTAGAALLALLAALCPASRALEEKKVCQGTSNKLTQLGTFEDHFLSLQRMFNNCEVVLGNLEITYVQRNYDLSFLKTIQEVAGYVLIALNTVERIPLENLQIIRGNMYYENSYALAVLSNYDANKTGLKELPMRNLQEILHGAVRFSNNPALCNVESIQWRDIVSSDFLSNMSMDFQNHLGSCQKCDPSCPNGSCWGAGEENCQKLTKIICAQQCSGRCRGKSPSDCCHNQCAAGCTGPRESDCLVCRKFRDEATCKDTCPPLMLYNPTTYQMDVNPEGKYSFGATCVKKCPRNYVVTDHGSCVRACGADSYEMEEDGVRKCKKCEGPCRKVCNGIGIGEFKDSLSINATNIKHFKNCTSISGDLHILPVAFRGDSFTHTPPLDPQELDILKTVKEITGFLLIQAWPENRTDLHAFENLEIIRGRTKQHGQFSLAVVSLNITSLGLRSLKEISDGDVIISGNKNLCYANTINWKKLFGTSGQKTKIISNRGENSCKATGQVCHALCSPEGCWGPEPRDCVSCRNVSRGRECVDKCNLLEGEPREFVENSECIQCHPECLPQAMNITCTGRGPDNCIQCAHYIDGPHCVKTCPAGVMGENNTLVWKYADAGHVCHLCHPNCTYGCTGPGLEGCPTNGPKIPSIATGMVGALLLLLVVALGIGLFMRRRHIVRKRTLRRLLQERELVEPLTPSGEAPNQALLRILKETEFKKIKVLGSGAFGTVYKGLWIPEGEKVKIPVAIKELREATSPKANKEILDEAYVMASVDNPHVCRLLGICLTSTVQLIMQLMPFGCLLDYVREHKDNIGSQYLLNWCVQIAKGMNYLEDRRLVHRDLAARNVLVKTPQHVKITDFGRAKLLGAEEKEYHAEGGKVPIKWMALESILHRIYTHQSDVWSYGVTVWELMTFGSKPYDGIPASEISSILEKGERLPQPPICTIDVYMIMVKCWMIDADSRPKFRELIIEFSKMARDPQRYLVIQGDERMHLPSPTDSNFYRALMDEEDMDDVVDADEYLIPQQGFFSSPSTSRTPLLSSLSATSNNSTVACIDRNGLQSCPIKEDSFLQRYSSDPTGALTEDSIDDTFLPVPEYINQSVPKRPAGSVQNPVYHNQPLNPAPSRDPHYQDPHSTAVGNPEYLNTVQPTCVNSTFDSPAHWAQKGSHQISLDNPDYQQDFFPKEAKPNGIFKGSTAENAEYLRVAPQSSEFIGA
# Lookup of reported EC50 keyed by entry
recordedMetric: EC50

molecularString	reportedMeasurement
C=CC(=O)Nc1ccc2c(c1)N(Cc1ccccc1)C(=O)c1cc(-c3ccc(N4CCNCC4)cc3)ccc1N2	≥ 750 nM
O=C(CCl)Nc1ccc2c(c1)N(Cc1ccccc1)C(=O)c1cc(-c3ccc4[nH]ccc4c3)ccc1N2	< 250 nM
C=CC(=O)Nc1ccc2c(c1)N(Cc1ccccc1)C(=O)c1cc(-c3ccc4[nH]ccc4c3)ccc1N2	500 to 750 nM
O=C1c2cc(Br)ccc2Nc2ccc(F)cc2N1Cc1ccccc1	250 to 500 nM
